Biological target: Induced myeloid leukemia cell differentiation protein Mcl-1 [171-327] (Homo sapiens)
Construct: 171-327
Sequence (Q07820 171-327): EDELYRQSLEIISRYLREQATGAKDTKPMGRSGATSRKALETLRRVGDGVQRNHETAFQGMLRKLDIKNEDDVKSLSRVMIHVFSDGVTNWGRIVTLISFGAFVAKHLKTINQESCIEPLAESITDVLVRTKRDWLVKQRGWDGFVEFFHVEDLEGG
Experiment: TR-FRET Binding A
Settings: pH 7.4; 24 °C
metric.name: Ki (nM)
// return numeric value only (unit: nM, not printed)

Problem: Consider the compound Cc1c(-c2cccc3c(CCCOc4cccc5ccccc45)c(C(=O)O)n(C)c23)c(COc2ccc(B(O)O)c(C=O)c2)nn1C tested on Induced myeloid leukemia cell differentiation protein Mcl-1 [171-327] (Homo sapiens); state its Ki.
Solution: 1.2

Problem: Consider the compound CC(=O)c1cc(OCc2nn(C)c(C)c2-c2cccc3c(CCCOc4cccc5ccccc45)c(C(=O)O)[nH]c23)ccc1B(O)O tested on Induced myeloid leukemia cell differentiation protein Mcl-1 [171-327] (Homo sapiens); state its Ki.
Solution: 1.2

# evaluate next
Problem: Consider the compound Cc1c(-c2cccc3c(CCCOc4cccc5ccccc45)c(C(=O)O)[nH]c23)c(COc2ccccc2)nn1C tested on Induced myeloid leukemia cell differentiation protein Mcl-1 [171-327] (Homo sapiens); state its Ki.
Solution: 104
